Value source: ChEMBL document CHEMBL4118104

- experiment: Cmax in Sprague-Dawley rat at 30 mg/kg, po by LC-MS/MS analysis
- Format: ADME, organism-based
- Parameters: dose 30 mg/kg, route oral
- settings: in vivo
quantity_kind: Cmax (ng/mL)

structure=Cl.Oc1ccc2[nH]c(-c3ccc4c(Cl)cc(Cl)c(O)c4n3)cc2c1 val=1000

----------
- experiment: MRT (0 to t) in Sprague-Dawley rat at 5 mg/kg, iv administered as single dose by LC-MS/MS analysis
- Format: ADME, organism-based
- settings: in vivo
quantity_kind: MRT last (min)

structure=Cl.Oc1ccc2[nH]c(-c3ccc4c(Cl)cc(Cl)c(O)c4n3)cc2c1 quantity_kind="MRT last" val=22.8

----------
- Test system: Mus musculus
- experiment: Induction of cell proliferation in C57BL/6 mouse hippocampal neurons in CA2 region assessed as BrdU-incorporation at 30 mg/kg, po administered via gavage for 7 days by immunohistochemical analysis (reference value: 2.4%)
- Assay type: functional
Catalogue of Activity readings, one per entry.
quantity_kind: Activity (%)

structure=Cl.Oc1c(Cl)cc(Cl)c2ccc(-c3cc4cc(Cl)ccc4[nH]3)nc12 quantity_kind=Activity val=5.1
structure=Cl.Oc1ccc2[nH]c(-c3ccc4c(Cl)cc(Cl)c(O)c4n3)cc2c1 quantity_kind=Activity val=24.3
structure=Cl.Oc1c(Cl)cc(Cl)c2ccc(-c3cc4cc5c(cc4[nH]3)OCO5)nc12 quantity_kind=Activity val=16.3
structure=Cl.Oc1cccc2ccc(-c3cc4ccc5c(c4[nH]3)OCO5)nc12 quantity_kind=Activity val=7.5
structure=COc1ccc2[nH]cc(CCNC(C)=O)c2c1 quantity_kind=Activity val=1.6

----------
- experiment: Volume of distribution at steady state in Sprague-Dawley rat at 5 mg/kg, iv administered as single dose by LC-MS/MS analysis
- Format: ADME, organism-based
- settings: in vivo, read-out: Vdss
quantity_kind: Vd (L/kg)

structure=Cl.Oc1ccc2[nH]c(-c3ccc4c(Cl)cc(Cl)c(O)c4n3)cc2c1 val=0.954

----------
- experiment: Half life in Sprague-Dawley rat at 30 mg/kg, po by LC-MS/MS analysis
- Assay type: ADME, organism-based
- settings: in vivo
quantity_kind: half-life

structure=Cl.Oc1ccc2[nH]c(-c3ccc4c(Cl)cc(Cl)c(O)c4n3)cc2c1 quantity_kind=half-life val="3.58 h"

----------
- experiment: AUC (0 to t) in Sprague-Dawley rat at 30 mg/kg, po by LC-MS/MS analysis
- Format: ADME, organism-based
- settings: in vivo
quantity_kind: AUC(0-t) (ng·h/mL)

structure=Cl.Oc1ccc2[nH]c(-c3ccc4c(Cl)cc(Cl)c(O)c4n3)cc2c1 quantity_kind=AUC(0-t) quantity_unit=ng·h/mL val=1500

----------
- System: Mus musculus
- experiment: Toxicity in C57BL/6 mouse assessed as histological abnormalities of lung at 2000 mg/kg, ig after 14 consecutive days by hematoxylin/eosin dye-based microscopic analysis
- Assay type: organism-based
- settings: in vivo, po, 336 h
quantity_kind: Activity

structure=Cl.Oc1c(Cl)cc(Cl)c2ccc(-c3cc4cc5c(cc4[nH]3)OCO5)nc12 target_under_test="Mus musculus" val=Non-Toxic
structure=Cl.Oc1c(Cl)cc(Cl)c2ccc(-c3cc4cc(Cl)ccc4[nH]3)nc12 target_under_test="Mus musculus" val=Non-Toxic
structure=Cl.Oc1ccc2[nH]c(-c3ccc4c(Cl)cc(Cl)c(O)c4n3)cc2c1 target_under_test="Mus musculus" val=Non-Toxic
structure=Cl.Oc1cccc2ccc(-c3cc4ccc5c(c4[nH]3)OCO5)nc12 target_under_test="Mus musculus" val=Non-Toxic
